Each entry below carries its reported folding enthalpy.
ASSAY EXPLANATION: folding enthalpy; higher = less favourable; fluorescence melt of hairpins on a sequencing array, two-state fit
PARTICULARS: sodium 0.088 M
Write down the numeric answer in kcal/mol and omit the unit.

Measured folding enthalpy of GATCAAAGCTTTGATC ((((((....)))))) : -57.4

Measured folding enthalpy of GGACCTGGAAACGGGTTC (.(((.(....).))).) : -26.6

Measured folding enthalpy of GAGCCGGGAAACCGACTC (((.(((....))).))) : -42.8

---
Measured folding enthalpy of GATCCAGCGTGGATC ((((((...)))))) : -27.4

Measured folding enthalpy of GAATGTGGAAACACGTTC (((.(((....))).))) : -32.3

Measured folding enthalpy of GATCTGGACCCAGATC ((((((....)))))) : -43.8

Measured folding enthalpy of GTCGGGCCGAAAGGCGAC (((..(((....)))))) : -14.5

Measured folding enthalpy of GTCCATGGAAACGTGGAC (((((.(....).))))) : -48.1

Measured folding enthalpy of GATCAGCATCTGATC ((((((...)))))) : -34.2

Measured folding enthalpy of GGTTTCGAAAGAAACC ((((((....)))))) : -40.8

Measured folding enthalpy of GGCTTAGGAAACTAGGCC (((.(((....))).))) : -31.3

Measured folding enthalpy of GCGGCTGCCCGC ((((....)))) : -19.4

Measured folding enthalpy of GTAAAAGAAATTTTAC ((((((....)))))) : -13

Measured folding enthalpy of GGAATCACGAAAGTGTCC (((..(((....)))))) : -11.5

Measured folding enthalpy of GGTAGCGAAAGCTAACC ((((((....))).))) : -18.7

Measured folding enthalpy of GTGTGTCGAAAGACTCAC (((.(((....))).))) : -40.9

----------
ASSAY EXPLANATION: folding enthalpy; higher = less favourable; fluorescence melt of hairpins on a sequencing array, two-state fit
PARTICULARS: sodium 0.088 M
Each entry below carries its reported folding enthalpy.

Measured folding enthalpy of GCCATCGGAAACAATGGC (((((.(....).))))) : -29.6 kcal/mol

Measured folding enthalpy of GTTTCAACGAAAGTTAAC (((..(((....)))))) : -15.8 kcal/mol

Measured folding enthalpy of GCAATGGGAAACCACTGC (((.(((....))).))) : -28.6 kcal/mol

Measured folding enthalpy of GTATGCGAAAGCACGTAC ((((((....)))..))) : -8.02 kcal/mol

Measured folding enthalpy of GATCACCGCGTGATC ((((((...)))))) : -35.6 kcal/mol

---
Measured folding enthalpy of GATCGAAGTTCGATC ((((((...)))))) : -38.4 kcal/mol

Measured folding enthalpy of GATCAGCATACTGATC ((((((....)))))) : -38.5 kcal/mol

Measured folding enthalpy of GCCGTTGGAAACGACGGC (((((.(....).))))) : -38 kcal/mol

----------
Each entry below carries its reported Tm.
ASSAY EXPLANATION: melting temperature; fluorescence melt of hairpins on a sequencing array, two-state fit, raised by 9.35 °C to match UV melts
PARTICULARS: sodium 0.088 M
Please don't drop the unit; write it after the number.

Illustrative cases are given below, each with its answer.
Measured Tm of GCTTTGCGAAAGCGAGGC ((.(.((....)).).)) : 49.7 °C

Measured Tm of GGGTTCGAAAGAATCCC ((((((....))).))) : 52 °C

Measured Tm of GAGATAGGAAACTATCTC (((((((....))))))) : 53.1 °C

---
Measured Tm of GCAGTGCGAAAGCTATGC (((..((....))..))) : 55.1 °C

Measured Tm of GAGCTTGGAAACAAACTC (((.(((....))).))) : 35.8 °C

Measured Tm of GATCTTTAAGAAGATC ((((((....)))))) : 41.5 °C

Measured Tm of GATCCCAGCTGGGATC ((((((....)))))) : 62.3 °C

Measured Tm of GTAAACGAAAGTTACTAC ((((((....)))..))) : 34.8 °C

----------
ASSAY EXPLANATION: folding enthalpy; higher = less favourable; fluorescence melt of hairpins on a sequencing array, two-state fit
PARTICULARS: sodium 0.088 M
Each entry below carries its reported folding enthalpy.
Write down the numeric answer in kcal/mol and omit the unit.

Illustrative cases are given below, each with its answer.
Measured folding enthalpy of GAGGCAGAAATGCCTC ((((((....)))))) : -37.8

Measured folding enthalpy of GGAGTCGAAAGACTCTCC ((((((....)))..))) : -10.2

Measured folding enthalpy of GATAGCGGAAACGCTGTC ((.((((....)))).)) : -25

---
Measured folding enthalpy of GGAAGTCGAAAGACATCC (((.(((....))).))) : -25.2

Measured folding enthalpy of GTACTCGAAAGAGGTTAC ((((((....)))..))) : -8.46

Measured folding enthalpy of GTACACGAAAGTGTCTAC ((((((....)))..))) : -10.6

Measured folding enthalpy of GATCCAGTTCTGGATC ((((((....)))))) : -39.6

Measured folding enthalpy of GCAGTGCGAAAGCGCAGC ((.(.((....)).).)) : -14.2

----------
ASSAY EXPLANATION: melting temperature; fluorescence melt of hairpins on a sequencing array, two-state fit, raised by 9.35 °C to match UV melts
PARTICULARS: sodium 0.088 M
Consider the cut-off 40 °C. If the recorded Tm is strictly smaller, the label is 1.0; if not, the label is 0.0.

Take a look at these entries with their results.
Hello, is Tm of the following sequence strictly smaller than 40 °C? GTTCCAGGAAACTGGGAC ((.((((....)))).))
0.0

Hello, is Tm of the following sequence strictly smaller than 40 °C? GGGTTTCGAAAGAATCCC (((.(((....))).)))
0.0

Hello, is Tm of the following sequence strictly smaller than 40 °C? GATCGATAGCTCGATC ((((((....))))))
0.0

Hello, is Tm of the following sequence strictly smaller than 40 °C? GCTCTCGAAAGAGCCAGC ((((((....)))..)))
1.0

Hello, is Tm of the following sequence strictly smaller than 40 °C? GAGTGCGAAAGCAGCTC ((((((....))).)))
0.0

Hello, is Tm of the following sequence strictly smaller than 40 °C? GCCACGGGAAACCGTGAC (.(((((....))))).)
0.0

---
Hello, is Tm of the following sequence strictly smaller than 40 °C? GAGGATACGAAAGTACTC (((..(((....))))))
1.0

Hello, is Tm of the following sequence strictly smaller than 40 °C? GTGCGACGAAAGTCCCAC (((.(((....))).)))
0.0

Hello, is Tm of the following sequence strictly smaller than 40 °C? GCCATGCGAAAGCTTAGC ((.(.((....)).).))
1.0

Hello, is Tm of the following sequence strictly smaller than 40 °C? CCGATGAAAATCGG (((((....)))))
0.0

Hello, is Tm of the following sequence strictly smaller than 40 °C? CGAGACGGAAACGTTTCG (((.(((....))).)))
0.0

Hello, is Tm of the following sequence strictly smaller than 40 °C? GCCTCTGGAAACAAAGGC ((((.((....)).))))
1.0

----------
ASSAY EXPLANATION: melting temperature; fluorescence melt of hairpins on a sequencing array, two-state fit, raised by 9.35 °C to match UV melts
PARTICULARS: sodium 0.088 M
QUANTITY: Tm
Please don't drop the unit; write it after the number.

Illustrative cases are given below, each with its answer.
Measured Tm of GTTTCCGAAAGGACAAAC ((((((....)))..))) : 26.1 °C

Measured Tm of GTAACCGGAAACGGTTAC (((((((....))))))) : 65.8 °C

Measured Tm of GACGAAGCGAAAGCTGTC (((..(((....)))))) : 45.4 °C

Measured Tm of GCAAGCGAAAGCTACTGC ((((((....)))..))) : 37.3 °C

Measured Tm of GGAATCGAAAGATGCTCC ((((((....)))..))) : 28.9 °C

---
Measured Tm of GCGACTGGAAACAGCCAC (.(.(((....))).).) : 27.7 °C

Measured Tm of GCACGGCGAAAGCACTGC (((..((....))..))) : 40.5 °C

Measured Tm of GCCAGGGGAAACCCCAGC ((..(((....)))..)) : 38.3 °C

Measured Tm of GCCACGGGAAACCGCGAC (.(.(((....))).).) : 29.1 °C

Measured Tm of GTGGATGGAAACATTCAC (((.(((....))).))) : 46.6 °C

Measured Tm of GATCAGACTGCTGATC ((((((....)))))) : 48.3 °C

Measured Tm of GTCCGCGAAAGCGTGGAC ((((((....)))..))) : 54.8 °C

Measured Tm of GGTTTAGGAAACTGAACC ((((.((....)).)))) : 43.2 °C

Measured Tm of GGAAGCCGAAAGGCGTCC (((.(((....))).))) : 61.6 °C

Measured Tm of GCCAACGAAAGTTATGGC ((((((....)))..))) : 45.7 °C

Measured Tm of GAGTCTGCGAAAGCACTC (((..(((....)))))) : 30.4 °C
